The compounds listed here are annotated with their pIC50.
target: Rat Hepatic V1 Receptors (Rattus norvegicus); construct: Rat liver plasma membranes expressing the vasopressin V1 receptor subtypes; from tissue; host or cells: rat liver plasma membranes; test: Binding Assay to Rat Hepatic V1 Receptors; conditions: rat liver membranes; read-out: V1 IC50
Sequence (P30560 whole entry): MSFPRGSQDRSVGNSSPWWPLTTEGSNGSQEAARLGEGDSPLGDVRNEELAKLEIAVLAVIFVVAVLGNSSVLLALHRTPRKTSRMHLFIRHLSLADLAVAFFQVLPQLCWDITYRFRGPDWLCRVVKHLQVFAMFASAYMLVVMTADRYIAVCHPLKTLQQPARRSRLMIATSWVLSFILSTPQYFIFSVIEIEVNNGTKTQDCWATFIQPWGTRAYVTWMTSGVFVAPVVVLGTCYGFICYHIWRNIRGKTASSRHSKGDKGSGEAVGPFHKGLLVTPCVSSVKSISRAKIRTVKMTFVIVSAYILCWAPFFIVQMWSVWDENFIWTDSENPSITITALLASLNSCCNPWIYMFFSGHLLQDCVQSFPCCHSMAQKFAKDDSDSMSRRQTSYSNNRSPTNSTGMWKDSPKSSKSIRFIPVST
pIC50: −log10 of the molar value.

- compound: "Cc1ccccc1C(=O)Nc1c(C)cc(C(=O)N2Cc3cccn3Cc3ccccc32)cc1C"
  tested target: "Rat Hepatic V1 Receptors (Rattus norvegicus)"
  pIC50: 6.05
- compound: "O=C(CC1CCCCC1)Nc1ccc(C(=O)N2Cc3cccn3Cc3ccccc32)cc1"
  tested target: "Rat Hepatic V1 Receptors (Rattus norvegicus)"
  pIC50: 7.06
- compound: "O=C(Nc1ccc(C(=O)N2Cc3cccn3Cc3ccccc32)cc1)c1cc(Cl)ccc1Cl"
  tested target: "Rat Hepatic V1 Receptors (Rattus norvegicus)"
  pIC50: 6.92
- compound: "CN(C)C(C(=O)Nc1ccc(C(=O)N2Cc3cccn3Cc3ccccc32)cc1)c1ccccc1 (stereo not shown)"
  tested target: "Rat Hepatic V1 Receptors (Rattus norvegicus)"
  pIC50: 6.35

---

The compounds listed here are annotated with their % Inhibition.
tested on: Vasopressin V1; assay: Vasopressin V1 Antagonist Activity in Conscious Rats (vasopressin vasopressor response); type: in vivo, rat; conditions: 10 mg/kg i.v., VAS 0.02 i.u./kg, 180 min, SHR
quantity: % Inhibition (%)

- compound structure: "O=C(Nc1ccc(C(=O)N2Cc3cccn3Cc3ccccc32)cc1)c1cccc(F)c1F"
  reported measurement: 9
- compound structure: "Cc1ccccc1CC(=O)Nc1ccc(C(=O)N2Cc3cccn3Cc3ccccc32)cc1"
  reported measurement: 78
- compound structure: "CCOc1ccccc1C(=O)Nc1ccc(C(=O)N2Cc3cccn3Cc3ccccc32)cc1"
  reported measurement: 48
- compound structure: "CSc1ccccc1C(=O)Nc1ccc(C(=O)N2Cc3cccn3Cc3ccccc32)cc1"
  reported measurement: 45
- compound structure: "COc1ccccc1C(=O)Nc1ccc(C(=O)N2Cc3cccn3Cc3ccccc32)cc1"
  reported measurement: 56
- compound structure: "Cc1cc(C(=O)N2Cc3cccn3Cc3ccccc32)ccc1NC(=O)c1ccc(Cl)cc1Cl"
  reported measurement: 44
- compound structure: "O=C(Nc1ccc(C(=O)N2Cc3cccn3Cc3ccccc32)cc1)c1ccccc1Cl"
  reported measurement: 59

---

test system: Vasopressin V1; test: Vasopressin V1 Antagonist Activity in Conscious Rats (vasopressin vasopressor response); assay type: in vivo, rat; set-up: unit not given here; conditions: 10 mg/kg i.v., VAS 0.01 i.u./kg, 180 min, SHR
Checkbox rule: Average Change lower than 20 = true (1); Average Change not lower than 20 = false (0).

- compound structure: "O=C(Nc1ccc(C(=O)N2Cc3cccn3Cc3ccccc32)cc1)c1ccccc1C(F)(F)F"
  tested target: "Vasopressin V1"
  group label: "false (0)"
- compound structure: "COc1cc(Cl)ccc1C(=O)Nc1ccc(C(=O)N2Cc3cccn3Cc3ccccc32)cc1"
  tested target: "Vasopressin V1"
  group label: "false (0)"
- compound structure: "CSc1ccccc1C(=O)Nc1ccc(C(=O)N2Cc3cccn3Cc3ccccc32)cc1"
  tested target: "Vasopressin V1"
  group label: "true (1)"
- compound structure: "Cc1ccccc1C(=O)Nc1ccc(C(=O)N2Cc3ccc(Cl)n3Cc3ccccc32)cc1"
  tested target: "Vasopressin V1"
  group label: "true (1)"
- compound structure: "CCOc1ccccc1C(=O)Nc1ccc(C(=O)N2Cc3cccn3Cc3ccccc32)cc1"
  tested target: "Vasopressin V1"
  group label: "false (0)"
- compound structure: "Cc1cc(C(=O)N2Cc3cccn3Cc3ccccc32)ccc1NC(=O)c1ccc(Cl)cc1Cl"
  tested target: "Vasopressin V1"
  group label: "true (1)"
- compound structure: "Cc1cc(C(=O)N2Cc3cccn3Cc3ccccc32)ccc1N"
  tested target: "Vasopressin V1"
  group label: "true (1)"
- compound structure: "Cc1ccccc1C(=O)Nc1ccc(C(=O)N2Cc3cccn3-c3ccccc32)cc1"
  tested target: "Vasopressin V1"
  group label: "false (0)"
- compound structure: "Cc1ccccc1NC(=O)Nc1ccc(C(=O)N2Cc3cccn3Cc3ccccc32)cc1"
  tested target: "Vasopressin V1"
  group label: "true (1)"
- compound structure: "Cc1ccccc1CC(=O)Nc1ccc(C(=O)N2Cc3cccn3Cc3ccccc32)cc1"
  tested target: "Vasopressin V1"
  group label: "true (1)"
- compound structure: "O=C(Nc1ccc(C(=O)N2Cc3cccn3Cc3ccccc32)cc1)C1CCCCC1"
  tested target: "Vasopressin V1"
  group label: "true (1)"
- compound structure: "Cc1ccsc1C(=O)Nc1ccc(C(=O)N2Cc3cccn3Cc3ccccc32)cc1"
  tested target: "Vasopressin V1"
  group label: "true (1)"
- compound structure: "O=C(Nc1ccc(C(=O)N2Cc3cccn3Cc3ccccc32)cc1)c1ccccc1F"
  tested target: "Vasopressin V1"
  group label: "true (1)"
- compound structure: "O=C(Nc1ccc(C(=O)N2Cc3cccn3Cc3ccccc32)cc1)c1ccccc1Cl"
  tested target: "Vasopressin V1"
  group label: "true (1)"
- compound structure: "COc1ccccc1C(=O)Nc1ccc(C(=O)N2Cc3cccn3Cc3ccccc32)cc1"
  tested target: "Vasopressin V1"
  group label: "true (1)"
- compound structure: "Cc1ccccc1C(=O)N(C)c1ccc(C(=O)N2Cc3cccn3Cc3ccccc32)cc1"
  tested target: "Vasopressin V1"
  group label: "true (1)"
- compound structure: "O=C(Nc1ccc(C(=O)N2Cc3cccn3Cc3ccccc32)cc1)c1cccc(F)c1F"
  tested target: "Vasopressin V1"
  group label: "false (0)"
- compound structure: "O=C(Cc1ccccc1F)Nc1ccc(C(=O)N2Cc3cccn3Cc3ccccc32)cc1"
  tested target: "Vasopressin V1"
  group label: "true (1)"

---

system: Vasopressin V1; experiment: Vasopressin V1 Antagonist Activity in Conscious Rats (vasopressin vasopressor response); format: in vivo, rat; parameters: unit not given here; details: 10 mg/kg i.v., VAS 0.01 i.u./kg, 240 min, SHR
quantity: Average Change

- compound structure: "COc1cc(Cl)ccc1C(=O)Nc1ccc(C(=O)N2Cc3cccn3Cc3ccccc32)cc1"
  quantity: "Average Change"
  reported measurement: 25
- compound structure: "CSc1ccccc1C(=O)Nc1ccc(C(=O)N2Cc3cccn3Cc3ccccc32)cc1"
  quantity: "Average Change"
  reported measurement: 12
- compound structure: "Cc1cc(C(=O)N2Cc3cccn3Cc3ccccc32)ccc1NC(=O)c1ccc(Cl)cc1Cl"
  quantity: "Average Change"
  reported measurement: 18
- compound structure: "COc1ccccc1C(=O)Nc1ccc(C(=O)N2Cc3cccn3Cc3ccccc32)cc1"
  quantity: "Average Change"
  reported measurement: 16.5
- compound structure: "O=C(Nc1ccc(C(=O)N2Cc3cccn3Cc3ccccc32)cc1)c1ccccc1Cl"
  quantity: "Average Change"
  reported measurement: 20.5
- compound structure: "Cc1cc(C(=O)N2Cc3cccn3Cc3ccccc32)ccc1N"
  quantity: "Average Change"
  reported measurement: 18.5
- compound structure: "Cc1ccccc1C(=O)N(C)c1ccc(C(=O)N2Cc3cccn3Cc3ccccc32)cc1"
  quantity: "Average Change"
  reported measurement: 11
- compound structure: "O=C(Nc1ccc(C(=O)N2Cc3cccn3Cc3ccccc32)cc1)C1CCCCC1"
  quantity: "Average Change"
  reported measurement: 12
- compound structure: "Cc1ccsc1C(=O)Nc1ccc(C(=O)N2Cc3cccn3Cc3ccccc32)cc1"
  quantity: "Average Change"
  reported measurement: 17
- compound structure: "O=C(Nc1ccc(C(=O)N2Cc3cccn3Cc3ccccc32)cc1)c1ccccc1F"
  quantity: "Average Change"
  reported measurement: 15
- compound structure: "O=C(Cc1ccccc1F)Nc1ccc(C(=O)N2Cc3cccn3Cc3ccccc32)cc1"
  quantity: "Average Change"
  reported measurement: 14

---

The compounds listed here are annotated with their Average Change.
Tested on: Vasopressin V1
Experiment: Vasopressin V1 Antagonist Activity in Conscious Rats (vasopressin vasopressor response)
Assay type: in vivo, rat
Parameters: unit not given here
Details: 10 mg/kg i.v., VAS 0.02 i.u./kg, 240 min, SHR
Procedure: Vasopressin V1 Antagonist Activity in Conscious Rats Conscious rats are restrained in a supine position with elastic tape. The area at the base of the tail is locally anesthetized by subcutaneous infiltration with 2% procaine (0.2 ml). […] The animals are placed in plastic restraining cages in an upright position. The cannula is attached to a Statham P23Db pressure transducer and pulsatile blood pressure is recorded. […]
quantity: Average Change

- compound structure: "O=C(Nc1ccc(C(=O)N2Cc3cccn3Cc3ccccc32)cc1)C1CCCCC1"
  quantity: "Average Change"
  reported measurement: 15.5
- compound structure: "CCOc1ccccc1C(=O)Nc1ccc(C(=O)N2Cc3cccn3Cc3ccccc32)cc1"
  quantity: "Average Change"
  reported measurement: 37
- compound structure: "Cc1ccccc1NC(=O)Nc1ccc(C(=O)N2Cc3cccn3Cc3ccccc32)cc1"
  quantity: "Average Change"
  reported measurement: 38.5
- compound structure: "CSc1ccccc1C(=O)Nc1ccc(C(=O)N2Cc3cccn3Cc3ccccc32)cc1"
  quantity: "Average Change"
  reported measurement: 18
- compound structure: "O=C(Nc1ccc(C(=O)N2Cc3cccn3Cc3ccccc32)cc1)c1ccc(Cl)cc1Cl"
  quantity: "Average Change"
  reported measurement: 35.5
- compound structure: "Cc1ccccc1C(=O)N(C)c1ccc(C(=O)N2Cc3cccn3Cc3ccccc32)cc1"
  quantity: "Average Change"
  reported measurement: 15
- compound structure: "Cc1ccccc1CC(=O)Nc1ccc(C(=O)N2Cc3cccn3Cc3ccccc32)cc1"
  quantity: "Average Change"
  reported measurement: 17
- compound structure: "O=C(Cc1ccccc1F)Nc1ccc(C(=O)N2Cc3cccn3Cc3ccccc32)cc1"
  quantity: "Average Change"
  reported measurement: 14.5
- compound structure: "Cc1ccccc1C(=O)Nc1ccc(C(=O)N2Cc3cccn3-c3ccccc32)cc1"
  quantity: "Average Change"
  reported measurement: 35.5
- compound structure: "O=C(Nc1ccc(C(=O)N2Cc3cccn3Cc3ccccc32)cc1)c1ccccc1Cl"
  quantity: "Average Change"
  reported measurement: 30.5
- compound structure: "COc1ccccc1C(=O)Nc1ccc(C(=O)N2Cc3cccn3Cc3ccccc32)cc1"
  quantity: "Average Change"
  reported measurement: 25
- compound structure: "O=C(Nc1ccc(C(=O)N2Cc3cccn3Cc3ccccc32)cc1)c1ccccc1F"
  quantity: "Average Change"
  reported measurement: 29
- compound structure: "Cc1ccsc1C(=O)Nc1ccc(C(=O)N2Cc3cccn3Cc3ccccc32)cc1"
  quantity: "Average Change"
  reported measurement: 23.5
- compound structure: "Cc1cc(C(=O)N2Cc3cccn3Cc3ccccc32)ccc1NC(=O)c1ccc(Cl)cc1Cl"
  quantity: "Average Change"
  reported measurement: 21.5
- compound structure: "Cc1cc(C(=O)N2Cc3cccn3Cc3ccccc32)ccc1N"
  quantity: "Average Change"
  reported measurement: 39.5
- compound structure: "O=C(Nc1ccc(C(=O)N2Cc3cccn3Cc3ccccc32)cc1)c1ccccc1C(F)(F)F"
  quantity: "Average Change"
  reported measurement: 29.5
- compound structure: "O=C(Nc1ccc(C(=O)N2Cc3cccn3Cc3ccccc32)cc1)c1cccc(F)c1F"
  quantity: "Average Change"
  reported measurement: 39.5
- compound structure: "COc1cc(Cl)ccc1C(=O)Nc1ccc(C(=O)N2Cc3cccn3Cc3ccccc32)cc1"
  quantity: "Average Change"
  reported measurement: 35
- compound structure: "Cc1ccccc1C(=O)Nc1ccc(C(=O)N2Cc3ccc(Cl)n3Cc3ccccc32)cc1"
  quantity: "Average Change"
  reported measurement: 23.5
